target: NPR-B (Mus musculus); construct: Murine NIH3T3 cells express endogenously the CNP signaling receptor, NPR-B; endogenous in cells; host or cells: NIH3T3 (murine fibroblasts); assay: Stimulation of cGMP production in NIH3T3 cells; type: cell-based, Murine; settings: NIH3T3, […], read-out: cGMP Response rel. to 1 uM CNP22, 10 nM
Sequence (Q6VVW5 17-1047): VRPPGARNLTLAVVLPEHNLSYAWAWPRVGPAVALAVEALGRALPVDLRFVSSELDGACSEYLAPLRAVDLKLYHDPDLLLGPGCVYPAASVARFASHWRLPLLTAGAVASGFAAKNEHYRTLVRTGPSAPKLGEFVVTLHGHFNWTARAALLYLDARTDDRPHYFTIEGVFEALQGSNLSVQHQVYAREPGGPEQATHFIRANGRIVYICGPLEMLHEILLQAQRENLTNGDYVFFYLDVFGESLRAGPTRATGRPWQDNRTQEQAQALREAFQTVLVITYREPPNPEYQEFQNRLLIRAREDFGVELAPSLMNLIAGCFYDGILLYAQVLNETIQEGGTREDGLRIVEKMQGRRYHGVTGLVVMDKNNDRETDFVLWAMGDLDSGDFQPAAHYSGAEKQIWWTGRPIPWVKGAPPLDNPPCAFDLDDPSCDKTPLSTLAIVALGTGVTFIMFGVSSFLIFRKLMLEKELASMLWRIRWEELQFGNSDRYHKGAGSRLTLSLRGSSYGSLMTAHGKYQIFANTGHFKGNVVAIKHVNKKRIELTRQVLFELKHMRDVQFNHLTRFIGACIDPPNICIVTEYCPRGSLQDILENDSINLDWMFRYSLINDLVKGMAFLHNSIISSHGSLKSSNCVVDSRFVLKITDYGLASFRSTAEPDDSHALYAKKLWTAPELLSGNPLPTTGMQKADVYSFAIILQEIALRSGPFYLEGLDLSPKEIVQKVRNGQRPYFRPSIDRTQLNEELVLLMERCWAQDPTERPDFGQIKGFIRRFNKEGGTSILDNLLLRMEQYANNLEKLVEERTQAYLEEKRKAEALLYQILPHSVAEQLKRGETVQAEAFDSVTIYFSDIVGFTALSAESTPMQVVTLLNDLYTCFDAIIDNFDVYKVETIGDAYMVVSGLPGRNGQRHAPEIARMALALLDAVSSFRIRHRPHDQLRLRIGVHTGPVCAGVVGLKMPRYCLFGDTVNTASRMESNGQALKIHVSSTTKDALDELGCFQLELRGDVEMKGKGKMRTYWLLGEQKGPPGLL
Quantity name: cGMP response relative to 1 uM CNP22 (%) at 0.01 µM
Value expressed in %; do not type the unit.

Lookup: Entry CC[C@H](C)[C@@H]1NC(=O)[C@H](CCCNC(=N)N)NC(=O)[C@H](CC(=O)O)NC(=O)[C@H](CC(C)C)N(C)C(=O)[C@H](CCCCN)NC(=O)[C@H](CC(C)C)N(C)C(=O)CNC(=O)[C@H](Cc2ccccc2)NC(=O)[C@@H](NC(=O)CNC(=O)[C@H](CCCCN)NC(=O)[C@H](CO)NC(=O)[C@H](CC(C)C)NC(=O)CN)CSSC[C@@H](C(=O)O)NC(=O)CNC(=O)[C@H](CC(C)C)NC(=O)CNC(=O)[C@H](CO)NC(=O)[C@H](CCSC)NC(=O)[C@H](CO)NC(=O)CNC1=O : reported cGMP response relative to 1 uM CNP22 (%) at 0.01 µM = ?
Found: 1

Lookup: Entry CC[C@H](C)[C@@H]1NC(=O)[C@H](CCCNC(=N)N)NC(=O)[C@H](CC(=O)O)NC(=O)[C@H](CC(C)C)NC(=O)[C@H](CCCCN)NC(=O)[C@H](CC(C)C)NC(=O)CNC(=O)[C@H](Cc2cccc(Cl)c2)NC(=O)[C@@H](NC(=O)CNC(=O)[C@H](CCCCN)NC(=O)[C@H](CO)NC(=O)[C@H](CC(C)C)NC(=O)CN)CSSC[C@@H](C(=O)O)NC(=O)CNC(=O)[C@H](CC(C)C)NC(=O)CNC(=O)[C@H](CO)NC(=O)[C@H](CCSC)NC(=O)[C@H](CO)NC(=O)CNC1=O : reported cGMP response relative to 1 uM CNP22 (%) at 0.01 µM = ?
Found: 17

###

Can you tell me half-life at 100 uM for the items I'm about to list?
target: neutral endopeptidase (NEP) (Homo sapiens); assay: In vitro neutral endopeptidase (NEP) cleavage assay; details: human, recombinant human neutral endopeptidase (NEP), pH 7
Sequence (P08473 whole entry): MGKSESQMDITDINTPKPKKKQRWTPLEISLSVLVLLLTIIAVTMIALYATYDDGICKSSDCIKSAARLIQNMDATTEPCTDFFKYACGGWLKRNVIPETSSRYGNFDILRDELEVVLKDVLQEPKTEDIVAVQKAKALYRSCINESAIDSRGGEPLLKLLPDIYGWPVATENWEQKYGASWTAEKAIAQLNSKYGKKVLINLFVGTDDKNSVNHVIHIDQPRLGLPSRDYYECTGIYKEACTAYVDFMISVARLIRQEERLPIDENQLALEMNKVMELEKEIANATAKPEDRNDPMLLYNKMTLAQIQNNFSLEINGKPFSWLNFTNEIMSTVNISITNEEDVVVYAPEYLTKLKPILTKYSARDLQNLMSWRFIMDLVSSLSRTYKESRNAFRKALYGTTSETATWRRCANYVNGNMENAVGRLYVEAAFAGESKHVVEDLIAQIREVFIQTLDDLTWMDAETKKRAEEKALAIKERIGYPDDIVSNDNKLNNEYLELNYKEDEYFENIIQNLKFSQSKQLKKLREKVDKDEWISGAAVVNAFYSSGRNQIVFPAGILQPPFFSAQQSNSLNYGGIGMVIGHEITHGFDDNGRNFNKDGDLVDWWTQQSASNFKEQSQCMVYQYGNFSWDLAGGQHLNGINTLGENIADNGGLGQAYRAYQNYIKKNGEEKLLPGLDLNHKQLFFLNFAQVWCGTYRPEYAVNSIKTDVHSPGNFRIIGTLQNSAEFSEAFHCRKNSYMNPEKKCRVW
Bridge positions count the residues as written; N and C are the ends. Square brackets hold non-standard residues; d marks the D form. Peptide text beside a SMILES is read from it. Phe(3,4-Cl2) = N[C@@H](Cc1ccc(Cl)c(Cl)c1)C(=O)O; Phe(3-Me) = Cc1cccc(C[C@H](N)C(=O)O)c1
Remember to follow the number with its unit.

Lookup: Entry CC[C@H](C)[C@@H]1NC(=O)[C@H](CCCNC(=N)N)NC(=O)[C@H](CC(=O)O)NC(=O)[C@H](CC(C)C)NC(=O)[C@H](CCCCN)NC(=O)[C@H](CC(C)C)NC(=O)CNC(=O)[C@H](Cc2ccc(Cl)c(Cl)c2)NC(=O)[C@@H](NC(=O)CNC(=O)CNC(=O)[C@H](CO)NC(=O)[C@H](CC(C)C)NC(=O)CN)CSSC[C@@H](C(=O)O)NC(=O)CNC(=O)[C@H](CC(C)C)NC(=O)CNC(=O)[C@H](CO)NC(=O)[C@H](CCSC)NC(=O)[C@H](CO)NC(=O)CNC1=O [V] (H-GLSGGC[Phe(3,4-Cl2)]GLKLDRIGSMSGLGC-OH; disulfide 6-22) : reported half-life at 100 uM = ?
Found: 1.13 h

Lookup: Entry CC[C@H](C)[C@@H]1NC(=O)[C@H](CCCNC(=N)N)NC(=O)[C@H](CC(=O)O)NC(=O)[C@H](CC(C)C)NC(=O)[C@H](CCCCN)NC(=O)[C@H](CC(C)C)NC(=O)CNC(=O)[C@H](Cc2cccc(C)c2)NC(=O)[C@@H](NC(=O)CNC(=O)CNC(=O)[C@H](CO)NC(=O)[C@H](CC(C)C)NC(=O)CN)CSSC[C@@H](C(=O)O)NC(=O)CNC(=O)[C@H](CC(C)C)NC(=O)CNC(=O)[C@H](CO)NC(=O)[C@H](CCSC)NC(=O)[C@H](CO)NC(=O)CNC1=O [X] (H-GLSGGC[Phe(3-Me)]GLKLDRIGSMSGLGC-OH; disulfide 6-22) : reported half-life at 100 uM = ?
Found: 1.13 h
